Data origin, for the record: patent US9944608B2

Tested on: Echinochloa crus-galli (ECHCG)
TEST_PROTOCOL: B1 Post-emergence efficacy, glasshouse pot test
Assay type: in vivo
EXPERIMENTAL_SETUP: post-emergence application, 1000 g/ha, evaluated after 13 days
Exercise: for every item that follows, state its recorded ECHCG: percentage damage caused to the plant (five point scale).

Worked examples, 3 molecules total:
{"SMILES_STRUCTURE": "Cn1nc(N)c(O)c(-c2c(F)ccc(Cl)c2OCc2ccccc2)c1=O", "TARGET_SYSTEM": "Echinochloa crus-galli (ECHCG)", "VAL": "2 (2=20-39%)"}
{"SMILES_STRUCTURE": "Cc1nn(C)c(=O)c(-c2cccc(Cl)c2OCc2ccccc2)c1O", "TARGET_SYSTEM": "Echinochloa crus-galli (ECHCG)", "VAL": "5 (5=80-100%)"}
{"SMILES_STRUCTURE": "Cc1nn(C)c(=O)c(-c2c(F)ccc(Cl)c2OCc2ccccc2)c1O", "TARGET_SYSTEM": "Echinochloa crus-galli (ECHCG)", "VAL": "5 (5=80-100%)"}

Can you give me ECHCG: percentage damage caused to the plant (five point scale) for all of these, one by one?
1. CSc1nn(C)c(=O)c(-c2c(Cl)ccc(Cl)c2OCc2ccccc2)c1O
2. Cc1nn(C)c(=O)c(-c2c(Cl)ccc(F)c2OCc2ccccc2)c1O

Response:
1. 2 (2=20-39%)
2. 4 (4=60-79%)

Can you give me ECHCG: percentage damage caused to the plant (five point scale) for all of these, one by one?
1. COc1ccc(COc2c(Cl)ccc(Cl)c2-c2c(O)c(C)nn(C)c2=O)cc1
2. Cc1ccc(Cl)c(OCc2ccccc2)c1-c1c(O)c(C)nn(C)c1=O

Response:
["5 (5=80-100%)", "5 (5=80-100%)"]

The molecule identified as Cn1nc(C2CC2)c(O)c(-c2c(Cl)ccc(Cl)c2OCc2ccccc2)c1=O registered its ECHCG: percentage damage caused to the plant (five point scale) at 5 (5=80-100%)
